Molecular target: IRAK-4 (Homo sapiens, UniProt Q9NWZ3)
Assay: IRAK-4 ELISA, PBMC degradation
Assay type: cell-based
Parameters: endogenous in cells; host or cells: PBMC
Details: treated overnight
assay_readout: Dmax

Form: compound = Cn1c(=O)n(C2CCC(=O)NC2=O)c2cccc(N3CC(CN4CCC(n5cc6cc(NC(=O)c7cnn8cccnc78)c(OCC7CC7)cc6n5)CC4)C3)c21 (stereo not drawn) ; Dmax = ≥ 90%

# Dmax (compound: CC(C)Oc1cc2nn(C3CCN(CC4(F)CN(c5cccc6c5n(C)c(=O)n6C5CCC(=O)NC5=O)C4)CC3)cc2cc1NC(=O)c1cnn2cccnc12 (stereo not drawn) ) is ≥ 90%

// next entry
Looking up CN(C1CN(c2ccc3c(c2)CN(C2CCC(=O)NC2=O)C3=O)C1)[C@H]1CC[C@H](n2cc3cc(NC(=O)c4cnn5cccnc45)c(OCC4CC4)cc3n2)CC1 (stereo partly drawn) , I see its Dmax listed as ≥ 90%

###

Target: IRAK-4 (Homo sapiens, UniProt Q9NWZ3)
Sequence (Q9NWZ3 1-460): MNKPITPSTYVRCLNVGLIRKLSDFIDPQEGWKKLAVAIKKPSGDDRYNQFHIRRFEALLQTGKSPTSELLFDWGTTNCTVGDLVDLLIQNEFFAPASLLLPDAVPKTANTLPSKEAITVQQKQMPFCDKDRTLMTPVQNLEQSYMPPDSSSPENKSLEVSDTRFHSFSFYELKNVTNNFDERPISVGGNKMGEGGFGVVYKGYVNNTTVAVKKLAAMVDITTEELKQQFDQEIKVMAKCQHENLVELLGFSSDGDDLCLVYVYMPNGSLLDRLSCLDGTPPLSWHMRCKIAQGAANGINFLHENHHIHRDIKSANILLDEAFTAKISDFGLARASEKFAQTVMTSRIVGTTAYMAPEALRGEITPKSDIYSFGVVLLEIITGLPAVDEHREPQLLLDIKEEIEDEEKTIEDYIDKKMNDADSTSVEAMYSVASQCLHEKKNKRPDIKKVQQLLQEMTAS
Assay: IRAK-4 ELISA, OCI-Ly10 degradation
Assay type: cell-based
Design: endogenous in cells
Settings: OCI-Ly10 cells, treated overnight
So I've got a bunch of compounds here, and I need their DC50 values.

Solved cases below.
The compound listed as O=C1CCC(N2C(=O)c3ccc(N4CC(CN5CCC(n6cc7cc(NC(=O)c8cnn9cccnc89)c(OCC8CC8)cc7n6)CC5)C4)cc3C2=O)C(=O)N1 (stereo not drawn) shows DC50 equal to < 10 nM

Kindly note the recorded DC50 for O=C1CCC(N2Cc3cc(C#CCN4CCC(n5cc6cc(NC(=O)c7cnn8cccnc78)c(OCC7CC7)cc6n5)CC4)ccc3C2=O)C(=O)N1 (stereo not drawn) , which is ≥ 100 nM

# DC50 of CC(C)(O)c1cc2nn(C3CCN(CC4CN(c5ccc6c(c5)C(=O)N(C5CCC(=O)NC5=O)C6=O)C4)CC3)cc2cc1NC(=O)c1cnn2cc(Cl)cnc12 (stereo not drawn) = 10 to 50 nM

Take each entry in turn and give its DC50.
1. COc1cc2nn([C@H]3CCN(CC4CCN(c5ccc6c(c5)C(=O)N(C5CCC(=O)NC5=O)C6=O)CC4)C[C@@H]3F)cc2cc1NC(=O)c1cnn2cccnc12 (stereo partly drawn)
2. CC(C)Oc1cc2c(cc1NC(=O)c1cnn3cccnc13)CN(C1CCN(CC3CN(c4ccc5c(c4)CN(C4CCC(=O)NC4=O)C5=O)C3)CC1)C2=O (stereo not drawn)
3. O=C1CCC(N2C(=O)c3ccc(N4CCC(CN5CCC(N6Cc7cc(NC(=O)c8cnn9cccnc89)c(OCC8CC8)cc7C6=O)CC5)CC4)cc3C2=O)C(=O)N1 (stereo not drawn)

1. 10 to 50 nM
2. < 10 nM
3. < 10 nM
